Exercise: for every item that follows, state its recorded Response.
target: T1, Recombinant human CD4 (R&D Systems, Cat. 10327-CD) (human, UniProt P01730 26-390, limits assumed)
T1 construct: Bought reagent; also called huCD4
testDetails: BLI Octet, non-clonal supernatant on AMC sensor, 100 nM human CD4;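 also: hybridoma supernatants diluted 1:3, antibodies captured on AMC biosensors, association and dissociation with CD4 followed, curves smoothed and fit locally with 1:1 binding model for single-point kinetics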

// solved cases for Response follow
binder="75110_01D24A (antibody, V domains shown, Tested as non-clonal AlivaMab Mouse Kappa hybridoma supernatant, captured by anti-mouse IgG Fc sensor) VH: QVQLQQWGAGLLKPSETLSLTCAVYGGSFSGYYWSWIRQPPGKGLEWIGEINHSGSTNYNPSLKSRVTISVDTSENQFSLKLNSVTAADTAVYYCARLVNWFDPWGQGTLVTVSS VL: EIQMTQSPSSVSASVGDRVTITCRASQDISNWLAWYQQKPGKAPNLLIFAASSLQTGVPSRFSGSGSGTDFTLTISSLQPDDFATYYCQQANSFPYSFGQGTNLGIK" reportedendpoint=Response reading=0.26
binder="75110_12H19A (antibody, V domains shown, Tested as non-clonal AlivaMab Mouse Kappa hybridoma supernatant, captured by anti-mouse IgG Fc sensor) VH: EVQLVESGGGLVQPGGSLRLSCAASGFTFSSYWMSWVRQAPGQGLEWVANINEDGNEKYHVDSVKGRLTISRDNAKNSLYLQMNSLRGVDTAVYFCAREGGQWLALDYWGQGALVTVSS VL: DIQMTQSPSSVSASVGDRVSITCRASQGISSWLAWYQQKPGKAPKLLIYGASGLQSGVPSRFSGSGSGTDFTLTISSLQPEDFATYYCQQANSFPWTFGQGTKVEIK" reportedendpoint=Response reading=0.09

Give measured Response for every item shown.
1. 75110_04B08A (antibody, V domains shown, Tested as non-clonal AlivaMab Mouse Kappa hybridoma supernatant, captured by anti-mouse IgG Fc sensor) VH: QVQLVESGGGVVQPGRSLRLSCTASGFNFINYGIHWVRQAPGKGLEWVTIIWYDGSKKYYADSVKGRFAISRDNSKNTLYLQMNSLRAEDTAVYYCAREDDWNDGLAYWGQGTLVTVSS VL: AIQMTQSPSSLSASVGDRVTITCRASQDIRNDLGWYQQKPGKAPNLLIYAASNLQSGVPSRFSGSGSGTDFTLTISSLQPEDFATYYCLQDSNYPRTFGQGTKVEIK
2. 75110_12K21A (antibody, V domains shown, Tested as non-clonal AlivaMab Mouse Kappa hybridoma supernatant, captured by anti-mouse IgG Fc sensor) VH: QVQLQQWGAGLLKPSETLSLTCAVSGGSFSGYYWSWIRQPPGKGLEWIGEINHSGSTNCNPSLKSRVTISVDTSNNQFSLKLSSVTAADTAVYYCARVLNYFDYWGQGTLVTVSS VL: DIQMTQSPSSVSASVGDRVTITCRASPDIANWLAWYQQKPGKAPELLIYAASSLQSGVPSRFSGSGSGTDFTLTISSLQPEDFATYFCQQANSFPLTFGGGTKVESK
3. 75110_02E08A (antibody, V domains shown, Tested as non-clonal AlivaMab Mouse Kappa hybridoma supernatant, captured by anti-mouse IgG Fc sensor) VH: QVQLQESGPGLVKPSETLSLTCTVSGGSISTYYWTWIRQPAGKGLEWIGRVYTSGDTNYNPSLKSRVAMSLDTSKNQFSLKLSSVTAADTAVYYCARDSGALYSWNYGDAFDIWGQGTMVTVSS VL: DIQMTQSPSAMSASVGDRVTITCRASQDISNYLAWFQQKPGKVPKRLIYAASSLQSGVPSRFSGSGSGTEFTLTISSLQPEDFATYYCLQHNSYPRTFGQGTKVEIK

0.14
0.26
0.08
